Test system: 156681-154-R-J1 tumor spheroid viability;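 note: spheroids exposed to compounds for 7 days before readout; percent of vehicle control viability where 100% = DMSO-treated spheroids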
Experiment: Anticancer human tumor 156681-154-R-J1 patient-derived melanoma cell line growth inhibition
Conditions: second compound 0.3 µM; first compound 1 µM; stronger effect = lower value; spheroids with HUVEC and MSC
Reported values of viability, T/C for individual entries
Measured endpoint: viability, T/C (%)

• [2H]c1nc(C)nc([2H])c1-c1cc(NC[C@@H](C)c2cccc3c(C(=O)NC)ccnc23)ncn1 + CC[C@@]1(O)C(=O)OCc2c1cc1n(c2=O)Cc2cc3c(CN(C)C)c(O)ccc3nc2-1 = 40.6
• CC(C)n1c(=O)n(C)c2cnc3cc(F)c(-c4ccc(OCCCN5CCCCC5)nc4)cc3c21 + CC[C@@]1(O)C(=O)OCc2c1cc1n(c2=O)Cc2cc3c(CN(C)C)c(O)ccc3nc2-1 = 9.94
• Cc1cc(C)c(CNC(=O)c2cc(-c3ccc(CN4CCOCC4)cc3)cc3c2cnn3C2CCCC2)c(=O)[nH]1 + CC[C@@]1(O)C(=O)OCc2c1cc1n(c2=O)Cc2cc3c(CN(C)C)c(O)ccc3nc2-1 = 30.9
• COc1cc(C)[nH]c(=O)c1CN1CCc2c(Cl)cc(C(OC)C3COC3)c(Cl)c2C1=O (stereo unspecified) + CC[C@@]1(O)C(=O)OCc2c1cc1n(c2=O)Cc2cc3c(CN(C)C)c(O)ccc3nc2-1 = 39.4
• CC1COCCN1c1cc(-c2ccnn2C)c2ccnc(-c3ccn[nH]3)c2n1 (stereo unspecified) + CC[C@@]1(O)C(=O)OCc2c1cc1n(c2=O)Cc2cc3c(CN(C)C)c(O)ccc3nc2-1 = 37.2
• COc1ccc([C@@H](O)c2cc(-c3ncnc4cc(N5CCOCC5)ccc34)c(F)cc2Cl)nn1 + CC[C@@]1(O)C(=O)OCc2c1cc1n(c2=O)Cc2cc3c(CN(C)C)c(O)ccc3nc2-1 = 42.1
